System: Caco-2
Experiment: cell viability relative to DMSO; higher = less toxic
Conditions: 72 h; 1 nM
recorded metric: cell viability

Some compounds with known cell viability results, for comparison:
| compound | reported |
| --- | --- |
| O=C1Nc2ccc(I)cc2C1=Cc1cc(Br)c(O)c(Br)c1 | 95.6% |
| CNCCC=C1c2ccccc2CCc2ccccc21 | 108% |
| O=c1[nH]c(=O)c2ccccc2o1 | 99.5% |
| O=C(O[C@H]1C[N+]2(CCCOc3ccccc3)CCC1CC2)C(O)(c1cccs1)c1cccs1 | 105% |
| O=C(Nc1nc2cccc(-c3ccc(CN4CCS(=O)(=O)CC4)cc3)n2n1)C1CC1 | 111% |

What cell viability appears in the records for this compound with Caco-2? COc1cc(OC)cc(-c2ccc3c(-c4ccc(F)cc4)n[nH]c3n2)c1
94.5%
